Test system: Mycosphaerella graminicola; Anamorph: Septoria tritici
Assay: Fungicidal activity: Leaf Blotch of Wheat (SEPTTR)
Type: in vivo
Settings: Zymoseptoria tritici, 24 h; High Volume (100 ppm), 1 Day Protectant, wheat leaf blotch; read-out: SEPTTR 1 DP disease control

{"MOLECULE": "C=C(C)COC[C@@H]1[C@@H](Cc2ccccc2)COC[C@H](NC(=O)c2nccc(OC)c2O)C(=O)O[C@H]1C [compound 120]", "pest or weed control at 100 µg/mL": "< 70%"}
{"MOLECULE": "COc1ccnc(C(=O)N[C@H]2COC[C@H](CCC(C)C)[C@@H](Cc3ccccc3)[C@H](C)OC2=O)c1O [compound 133]", "pest or weed control at 100 µg/mL": "> 70%"}
{"MOLECULE": "COc1ccnc(C(=O)N[C@H]2COC[C@H](CC3CC3)[C@@H](c3ccccc3)[C@H](C)OC2=O)c1O [compound 154]", "pest or weed control at 100 µg/mL": "> 70%"}
{"MOLECULE": "COc1ccnc(C(=O)N[C@H]2COC[C@H](CCc3ccccc3)[C@@H](CCc3ccccc3)[C@H](C)OC2=O)c1O [compound 113]", "pest or weed control at 100 µg/mL": "> 70%"}
{"MOLECULE": "COc1ccnc(C(=O)N[C@H]2COC[C@@H]3CCCC[C@H]3[C@@H](C)OC2=O)c1O [compound 114]", "pest or weed control at 100 µg/mL": "> 70%"}
{"MOLECULE": "COc1ccnc(C(=O)N[C@H]2COC[C@H](CCC(C)C)[C@@H](CCC(C)C)[C@H](C)OC2=O)c1O [compound 117]", "pest or weed control at 100 µg/mL": "> 70%"}
{"MOLECULE": "COc1ccnc(C(=O)N[C@H]2COC[C@H](Cc3ccccc3)[C@@H](COCC(C)C)[C@H](C)OC2=O)c1O [compound 121]", "pest or weed control at 100 µg/mL": "< 70%"}

====

Tested on: Mycosphaerella graminicola; Anamorph: Septoria tritici
Assay: Fungicidal activity: Leaf Blotch of Wheat (SEPTTR)
Format: in vivo
Conditions: Zymoseptoria tritici, 72 h; Low Volume (121.5 g/H), 3 Day Curative, wheat leaf blotch; read-out: SEPTTR 3 DC disease control
Listing: pest or weed control at 121.5 g/ha of selected compounds

{"MOL": "CCC[C@H]1COC[C@H](NC(=O)c2nccc(OC)c2OCOC(C)=O)C(=O)O[C@@H](C)[C@@H]1c1ccccc1", "pest or weed control at 121.5 g/ha": "> 70%"}
{"MOL": "COc1ccnc(C(=O)N[C@H]2COC[C@H](Cc3ccccc3)[C@@H](Cc3ccccc3)[C@H](C)OC2=O)c1OC(C)=O", "pest or weed control at 121.5 g/ha": "> 70%"}
{"MOL": "COc1ccnc(C(=O)N[C@H]2COC[C@H](Cc3ccc(C(F)(F)F)cc3)[C@@H](Cc3ccc(F)cc3)[C@H](C)OC2=O)c1OC(C)=O", "pest or weed control at 121.5 g/ha": "< 70%"}
{"MOL": "COc1ccnc(C(=O)N[C@H]2COC[C@H](CCC(C)C)[C@@H](Cc3ccccc3)[C@H](C)OC2=O)c1OC(C)=O", "pest or weed control at 121.5 g/ha": "> 70%"}
{"MOL": "COc1ccnc(C(=O)N[C@H]2COC[C@H](Cc3ccccc3)[C@@H](CCc3ccccc3)[C@H](C)OC2=O)c1OCOC(=O)C(C)C", "pest or weed control at 121.5 g/ha": "> 70%"}
{"MOL": "CCC[C@H]1COC[C@H](NC(=O)c2nccc(OC)c2OC(C)=O)C(=O)O[C@@H](C)[C@@H]1Cc1ccccc1", "pest or weed control at 121.5 g/ha": "> 70%"}

====

Test system: Mycosphaerella graminicola; Anamorph: Septoria tritici
Experiment: Fungicidal activity: Leaf Blotch of Wheat (SEPTTR)
Type: in vivo
Details: Zymoseptoria tritici, 72 h; High Volume (100 ppm), 3 Day Curative, wheat leaf blotch; read-out: SEPTTR 3 DC disease control

{"MOLECULE": "COc1ccnc(C(=O)N[C@H]2COC[C@H](CCCc3ccccc3)[C@@H](Cc3ccc(OC(F)(F)F)cc3)[C@H](C)OC2=O)c1O [compound 146]", "TESTED TARGET": "Mycosphaerella graminicola; Anamorph: Septoria tritici", "pest or weed control at 100 µg/mL": "< 70%"}
{"MOLECULE": "COc1ccnc(C(=O)N[C@H]2COC[C@H](CCc3ccccc3)[C@@H](CCc3ccccc3)[C@H](C)OC2=O)c1OCOC(C)=O [compound 4]", "TESTED TARGET": "Mycosphaerella graminicola; Anamorph: Septoria tritici", "pest or weed control at 100 µg/mL": "> 70%"}
{"MOLECULE": "COc1ccnc(C(=O)N[C@H]2COC[C@H](Cc3ccc(Cl)cc3)[C@@H](CC(C)C)[C@H](C)OC2=O)c1O [compound 145]", "TESTED TARGET": "Mycosphaerella graminicola; Anamorph: Septoria tritici", "pest or weed control at 100 µg/mL": "> 70%"}
{"MOLECULE": "COc1cccc(C[C@H]2COC[C@H](NC(=O)c3nccc(OC)c3O)C(=O)O[C@@H](C)[C@@H]2Cc2cccc(OC)c2)c1 [compound 124]", "TESTED TARGET": "Mycosphaerella graminicola; Anamorph: Septoria tritici", "pest or weed control at 100 µg/mL": "< 70%"}
{"MOLECULE": "COc1ccnc(C(=O)N[C@H]2COC[C@@H]3CCCC[C@H]3[C@@H](C)OC2=O)c1O [compound 114]", "TESTED TARGET": "Mycosphaerella graminicola; Anamorph: Septoria tritici", "pest or weed control at 100 µg/mL": "< 70%"}
{"MOLECULE": "COc1ccnc(C(=O)N[C@H]2COC[C@H](Cc3ccc(C(F)(F)F)cc3)[C@@H](Cc3ccc(OC(F)(F)F)cc3)[C@H](C)OC2=O)c1O [compound 138]", "TESTED TARGET": "Mycosphaerella graminicola; Anamorph: Septoria tritici", "pest or weed control at 100 µg/mL": "< 70%"}
{"MOLECULE": "COc1ccnc(C(=O)N[C@H]2COC[C@H](Cc3ccccc3)[C@@H](Cc3ccccc3)[C@H](C)OC2=O)c1OCOC(C)=O [Cmpd. 3]", "TESTED TARGET": "Mycosphaerella graminicola; Anamorph: Septoria tritici", "pest or weed control at 100 µg/mL": "> 70%"}
{"MOLECULE": "COc1ccnc(C(=O)N[C@H]2COC[C@H](CCC(C)C)[C@@H](Cc3ccccc3)[C@H](C)OC2=O)c1O [compound 133]", "TESTED TARGET": "Mycosphaerella graminicola; Anamorph: Septoria tritici", "pest or weed control at 100 µg/mL": "> 70%"}
{"MOLECULE": "COc1ccnc(C(=O)N[C@H]2COC[C@H](CCC(C)C)[C@@H](CCC(C)C)[C@H](C)OC2=O)c1O [compound 117]", "TESTED TARGET": "Mycosphaerella graminicola; Anamorph: Septoria tritici", "pest or weed control at 100 µg/mL": "< 70%"}
{"MOLECULE": "COc1ccnc(C(=O)N[C@H]2COC[C@H](CC3CC3)[C@@H](Cc3ccc(F)cc3)[C@H](C)OC2=O)c1O [compound 153]", "TESTED TARGET": "Mycosphaerella graminicola; Anamorph: Septoria tritici", "pest or weed control at 100 µg/mL": "> 70%"}
{"MOLECULE": "CCC[C@H]1COC[C@H](NC(=O)c2nccc(OC)c2O)C(=O)O[C@@H](C)[C@@H]1Cc1ccccc1 [compound 126]", "TESTED TARGET": "Mycosphaerella graminicola; Anamorph: Septoria tritici", "pest or weed control at 100 µg/mL": "> 70%"}
{"MOLECULE": "COc1ccnc(C(=O)N[C@H]2COC[C@H](Cc3ccc(C(F)(F)F)cc3)[C@@H](Cc3ccccc3)[C@H](C)OC2=O)c1O [compound 136]", "TESTED TARGET": "Mycosphaerella graminicola; Anamorph: Septoria tritici", "pest or weed control at 100 µg/mL": "< 70%"}
{"MOLECULE": "COc1ccnc(C(=O)N[C@H]2COC[C@H](c3ccccc3)[C@@H](c3ccccc3)[C@H](C)OC2=O)c1OCOC(C)=O [compound 7]", "TESTED TARGET": "Mycosphaerella graminicola; Anamorph: Septoria tritici", "pest or weed control at 100 µg/mL": "> 70%"}

====

Test system: Mycosphaerella graminicola; Anamorph: Septoria tritici
Test: Fungicidal activity: Leaf Blotch of Wheat (SEPTTR)
Format: in vivo
Conditions: Zymoseptoria tritici, 72 h; Low Volume (121.5 g/H), 3 Day Curative, wheat leaf blotch; read-out: SEPTTR 3 DC disease control
PARAMETER MEASURED: pest or weed control at 121.5 g/ha

{"MOL": "COc1ccnc(C(=O)N[C@H]2COC[C@H](CCC(C)C)[C@@H](C3CCCC3)[C@H](C)OC2=O)c1OC(=O)C(C)C", "ASSAY VALUE": "> 70%"}
{"MOL": "COc1ccnc(C(=O)N[C@H]2COC[C@H](Cc3ccccc3)[C@@H](C3CCCC3)[C@H](C)OC2=O)c1OCOC(=O)C(C)C", "ASSAY VALUE": "> 70%"}
{"MOL": "COc1ccnc(C(=O)N[C@H]2COC[C@H](CC3CCCC3)[C@@H](CC3CCCC3)[C@H](C)OC2=O)c1OCOC(C)=O", "ASSAY VALUE": "> 70%"}
{"MOL": "CCOCC(=O)OCOc1c(OC)ccnc1C(=O)N[C@H]1COC[C@H](Cc2ccccc2)[C@@H](CCc2ccccc2)[C@H](C)OC1=O", "ASSAY VALUE": "> 70%"}
{"MOL": "COc1ccnc(C(=O)N[C@H]2COC[C@H](CCCc3ccccc3)[C@@H](Cc3ccc(OC(F)(F)F)cc3)[C@H](C)OC2=O)c1OCOC(C)=O", "ASSAY VALUE": "> 70%"}
{"MOL": "COc1ccnc(C(=O)N[C@H]2COC[C@H](CCC(C)C)[C@@H](C3CCCC3)[C@H](C)OC2=O)c1OC(C)=O", "ASSAY VALUE": "> 70%"}
{"MOL": "COc1ccnc(C(=O)N[C@H]2COC[C@H](Cc3ccccc3)[C@@H](Cc3ccc(OC(F)(F)F)cc3)[C@H](C)OC2=O)c1OC(C)=O", "ASSAY VALUE": "< 70%"}
{"MOL": "CCC[C@H]1COC[C@H](NC(=O)c2nccc(OC)c2OCOC(C)=O)C(=O)O[C@@H](C)[C@@H]1Cc1ccccc1", "ASSAY VALUE": "> 70%"}
{"MOL": "COc1ccnc(C(=O)N[C@H]2COC[C@H](Cc3ccc(C(F)(F)F)cc3)[C@@H](Cc3ccc(F)cc3)[C@H](C)OC2=O)c1OCOC(C)=O", "ASSAY VALUE": "< 70%"}
{"MOL": "COc1ccnc(C(=O)N[C@@H]2COC[C@@H](Cc3ccccc3)[C@H](COCC(C)C)[C@@H](C)OC2=O)c1OCOC(C)=O", "ASSAY VALUE": "> 70%"}
{"MOL": "CCC[C@H]1COC[C@H](NC(=O)c2nccc(OC)c2OCOC(=O)COCC)C(=O)O[C@@H](C)[C@@H]1Cc1ccccc1", "ASSAY VALUE": "> 70%"}
{"MOL": "COc1ccnc(C(=O)N[C@H]2COC[C@H](CC3CC3)[C@@H](Cc3ccccc3)[C@H](C)OC2=O)c1OC(C)=O", "ASSAY VALUE": "> 70%"}
{"MOL": "CCC[C@H]1COC[C@H](NC(=O)c2nccc(OC)c2OC(C)=O)C(=O)O[C@@H](C)[C@@H]1CC(C)C", "ASSAY VALUE": "> 70%"}
